B1: TPR 5TU (parent)
chain: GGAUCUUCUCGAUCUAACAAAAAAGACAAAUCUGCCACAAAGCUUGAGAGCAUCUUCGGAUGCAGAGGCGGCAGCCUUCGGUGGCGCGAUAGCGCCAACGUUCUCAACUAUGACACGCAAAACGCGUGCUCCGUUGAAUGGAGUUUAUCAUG

variants of: B1; experiment: polymerase ribozyme fitness, log enrichment relative to wild type (log ratio); higher = more active; in vitro selection for triplet polymerase activity
Variants at the floor of the assay were thinned out.
reported.metric: polymerase ribozyme fitness (log ratio)
Give bare numbers.

{"variant.key": "A16C C87U", "reported.metric": "polymerase ribozyme fitness (log ratio)", "experimental.result": -1.85}
{"variant.key": "G84U G117U", "reported.metric": "polymerase ribozyme fitness (log ratio)", "experimental.result": -1.61}
{"variant.key": "C5G A24U G81C", "reported.metric": "polymerase ribozyme fitness (log ratio)", "experimental.result": -0.313}

Dear reader, for each entry below, please note its polymerase ribozyme fitness (log ratio).
1. G58U G59U C96G C123A C149U
2. C10A A22U A37C U134C A142G
3. A73G G92C
4. G81C A120G

Resp:
1. -3.08
2. -4
3. -0.498
4. -0.127

Hi team, please reply with polymerase ribozyme fitness (log ratio) for each item in this list.
1. A21C C63U A73C C95A A98U
2. A21C C51U A106G
3. A3U A142C
4. U6A A12G A17C G25C U55G A89G
5. A21C C93A
6. C93G U144A
7. G84A C95A U104C

Resp:
[-3.29, -0.144, -1.59, -3.61, -2.02, -2.68, -0.367]

Return reported polymerase ribozyme fitness (log ratio) values for all items listed beneath this line.
1. A12G C69A C96U A121C U127G A147U
2. C35U G94U
3. U55A G71U G117A
4. A52C G88A C95U C99U A110U
5. G86A U104G
6. G11A C96G A120C U146C

Resp:
1. -4.02
2. -0.729
3. -3.07
4. -4.07
5. -2.29
6. -1.48

These entries and their values trace back to the RNAGym collection of RNA variant scans (doi:10.1073/pnas.2313332121).
